The origin of these recorded values is paper PMC9518246.

- TARGET_SYSTEM: BuChE (Homo sapiens)
- Sequence (P06276 29-602): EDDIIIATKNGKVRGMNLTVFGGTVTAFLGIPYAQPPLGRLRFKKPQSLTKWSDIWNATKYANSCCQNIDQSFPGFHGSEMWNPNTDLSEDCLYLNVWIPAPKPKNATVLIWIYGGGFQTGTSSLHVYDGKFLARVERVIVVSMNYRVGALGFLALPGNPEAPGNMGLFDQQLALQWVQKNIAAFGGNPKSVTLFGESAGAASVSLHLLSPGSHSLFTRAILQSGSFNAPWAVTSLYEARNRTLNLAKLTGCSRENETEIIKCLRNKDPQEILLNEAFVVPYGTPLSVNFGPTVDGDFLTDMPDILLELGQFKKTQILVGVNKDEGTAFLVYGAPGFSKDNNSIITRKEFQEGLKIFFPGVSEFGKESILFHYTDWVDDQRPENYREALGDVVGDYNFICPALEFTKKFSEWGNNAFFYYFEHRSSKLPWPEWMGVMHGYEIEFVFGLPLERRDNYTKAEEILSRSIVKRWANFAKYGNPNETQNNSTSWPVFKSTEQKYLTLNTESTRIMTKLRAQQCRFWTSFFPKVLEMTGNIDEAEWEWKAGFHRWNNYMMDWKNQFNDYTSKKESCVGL
Lab note - cut at 80 nM for IC50: T if strictly below, F if not.

>>> print(df.to_string())
                                   molecule  group
0  CS(=O)(=O)n1cc(/C=N/NC(=O)Cc2ccc(Cl)cc2)c2ccccc21      T
1  CS(=O)(=O)n1cc(/C=N/NC(=O)c2sc(=S)n(-c3ccccc3)c2N)c2ccccc21 [Compound 10b]      T
2  COc1cc(/C(=C\c2cn(S(C)(=O)=O)c3ccccc23)C(=O)O)cc(OC)c1OC      F
3  CS(=O)(=O)n1cc(/C=C/C(=O)c2ccc(NC(=O)Cc3ccc(Cl)cc3)cc2)c2ccccc21      T
